Assay: qHTS assay for small molecules that induce genotoxicity in human embryonic kidney cells expressing luciferase-tagged ATAD5 - cell viability (AID 651634); further: nearly all actives have a fitted effect of over 25% in size
Conditions: HEK293T ATAD5-luc cells viability, CellTiter-Fluor, 15.5 h; series mostly up to 83.3 µM
Records with an inconclusive call do not appear. Calls of active or inactive are those of the source. The call rests on the fitted dose curve.
Pick from active, inactive when you respond.

# compound, cat
rows = [
    ("C=CCOCC1CO1 (stereo unspecified)", "inactive"),
    ("FC(F)OC(F)(F)C(F)Cl (stereo unspecified)", "inactive"),
    ("COc1ccccc1N1CCNCC1", "inactive"),
    ("C=C(Cl)Cl", "inactive"),
    ("CC(C)(C)OOC(C)(C)CCC(C)(C)OOC(C)(C)C", "inactive"),
    ("CC(C)(C)NCC(O)c1cc(Cl)c(N)c(C(F)(F)F)c1 (stereo unspecified)", "inactive"),
    ("Cc1ccccc1", "inactive"),
    ("CCCSP(=S)(OCC)Oc1ccc(SC)cc1 (stereo unspecified)", "inactive"),
]

Query: Name the outcome recorded for NC(=O)CF in the assay.
Result: inactive

Query: Name the outcome recorded for CCCCCCCCn1sccc1=O in the assay.
Result: active

Query: Name the outcome recorded for C[N+](C)(C)CCOC(=O)C(O)(c1ccccc1)c1ccccc1 in the assay.
Result: inactive

Query: Name the outcome recorded for CC1(C)[C@H](C(=O)O[C@H](C#N)c2cccc(Oc3ccccc3)c2)[C@@H]1C=C(Br)Br in the assay.
Result: inactive

Query: Name the outcome recorded for O=C(Cl)OCCOCCOC(=O)Cl in the assay.
Result: inactive

Query: Name the outcome recorded for CCCN(CCOc1c(Cl)cc(Cl)cc1Cl)C(=O)n1ccnc1 in the assay.
Result: inactive

Query: Name the outcome recorded for O=P(OCC(Br)CBr)(OCC(Br)CBr)OCC(Br)CBr (stereo unspecified) in the assay.
Result: inactive

Query: Name the outcome recorded for NNCCO in the assay.
Result: inactive

====

Biological target: Estrogen receptor beta (Homo sapiens) (UniProt Q92731)
Sequence (Q92731 whole entry, looked up): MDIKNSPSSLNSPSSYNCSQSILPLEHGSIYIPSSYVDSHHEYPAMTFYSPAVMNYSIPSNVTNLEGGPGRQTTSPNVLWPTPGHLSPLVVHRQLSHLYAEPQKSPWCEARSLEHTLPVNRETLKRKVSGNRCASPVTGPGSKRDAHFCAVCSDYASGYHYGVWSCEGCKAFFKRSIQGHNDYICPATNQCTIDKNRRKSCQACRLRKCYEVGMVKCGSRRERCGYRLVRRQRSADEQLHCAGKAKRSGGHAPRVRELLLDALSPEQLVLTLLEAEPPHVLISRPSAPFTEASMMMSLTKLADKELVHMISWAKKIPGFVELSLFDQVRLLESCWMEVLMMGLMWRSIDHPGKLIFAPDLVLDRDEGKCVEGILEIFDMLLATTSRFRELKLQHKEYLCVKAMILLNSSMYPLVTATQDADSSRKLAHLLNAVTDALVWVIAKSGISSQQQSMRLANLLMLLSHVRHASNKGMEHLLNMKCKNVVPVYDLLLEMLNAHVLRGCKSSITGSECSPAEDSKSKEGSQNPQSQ
Assay: qHTS assay to identify small molecule agonists of the estrogen receptor beta (ER-beta) signaling pathway (AID 1259377)
Conditions: ER-beta-UAS-bla HEK293T, beta-lactamase FRET ratio, 16 h; series mostly up to 92.4 µM
Results filed as inconclusive are left out. Calls of active or inactive are those of the source. Calls follow the shape of the dose curve; as a rule, active = well fitted activation curve with a large enough effect in the signal ratio in the repeat runs (not every such curve was filed as active); inconclusive = weak or mixed curves, or effect the other way; inactive = flat fitted curve, though single readings scatter; the % refers to the signal ratio.
Pick from active, inactive when you respond.

Examples with answers:
# molecule, cat
rows = [
    ("C[Si](Cn1cncn1)(c1ccc(F)cc1)c1ccc(F)cc1", "inactive"),
    ("O=S(=O)(Cl)Cl", "inactive"),
    ("COc1ccccc1N1CCNCC1", "inactive"),
    ("Cc1ccccc1", "inactive"),
    ("Cc1ncc(C[n+]2csc(CCO)c2C)c(N)n1", "inactive"),
    ("O=C(O)c1cc(Cl)ccc1Cl", "inactive"),
]

Let us examine a further case.
Query: Name the outcome recorded for O=C(N/N=C/c1ccc([N+](=O)[O-])o1)c1cc([N+](=O)[O-])cc([N+](=O)[O-])c1O in the assay.
Result: inactive

====

Experiment: qHTS assay to identify small molecule that activate the aryl hydrocarbon receptor (AhR) signaling pathway - cell viability counter screen (AID 743086);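 further: HepG2 liver cells carrying the AhR DRE luciferase reporter; nearly all actives have a fitted effect of over 45% in size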
Conditions: HepG2-AhR-luc viability, CellTiter-Fluor, 24 h; series mostly up to 70.3 µM
Records with an inconclusive call do not appear. Activity calls are given as the source filed them. Calls come from the whole dose curve; as a rule, active = well fitted cell-killing curve with a large enough effect in the repeat runs; inconclusive = weak or mixed curves, or effect the other way; inactive = flat fitted curve, though single readings scatter.
Pick from active, inactive when you respond.

Examples with answers:
# compound, cat
records = [
    ("CCCCC(CC)CO[N+](=O)[O-] (stereo not drawn)", "inactive"),
    ("O=C(O)c1cc(Cl)ccc1Cl", "inactive"),
    ("FC(Cl)(Cl)C(F)(Cl)Cl", "inactive"),
    ("O=C(Cl)OCCOCCOC(=O)Cl", "inactive"),
    ("C=CC(C)(CCC=C(C)C)OC(=O)c1ccccc1N (stereo not drawn)", "inactive"),
    ("CC(C)C1(C)N=C(c2ncccc2C(=O)O)NC1=O (stereo not drawn)", "inactive"),
    ("NNCCO", "inactive"),
    ("CCC1(C2=NCCN2)Cc2ccccc2O1 (stereo not drawn)", "inactive"),
]

Query: Name the outcome recorded for C1CS1 in the assay.
Result: inactive

Query: Name the outcome recorded for OCCSSCCO in the assay.
Result: inactive

Query: Name the outcome recorded for C=CCSSCC=C in the assay.
Result: inactive
